Experiment: Metabolic stability in human hepatocytes assessed as intrinsic clearance measured per 10^6 cells
Format: ADME, cell-based, Hepatocyte
Details: read-out: CLH
measureName: hepatocyte CLint (µL/min/1e6 cells)

Study these solved cases before continuing.
- querySmiles: "C=CC(=O)N(c1ccc(O[C@@H]2CC[C@@H](NC(=O)N[C@@H]3CCS(=O)(=O)C3)C2)c(F)c1)[C@@H](C)c1ccc(Cl)cc1"
  hepatocyte CLint / µL/min/1e6 cells: 7.4
- querySmiles: "C=CC(=O)N(c1ccc(O[C@@H]2CC[C@@H](NC(=O)N[C@@H]3CCS(=O)(=O)C3)C2)c(F)c1)[C@@H](CC(N)=O)c1ccc(Cl)cc1"
  hepatocyte CLint / µL/min/1e6 cells: 25
- querySmiles: "C=CC(=O)N(c1ccc(O[C@@H]2CC[C@@H](NC(=O)NCC(C)(C)N(C)C)C2)c(F)c1)[C@@H](C)c1ccc(Cl)cc1"
  hepatocyte CLint / µL/min/1e6 cells: 6.1

A. C=CC(=O)N(c1ccc(O[C@@H]2CC[C@@H](NC(=O)N[C@@H]3CCS(=O)(=O)C3)C2)c(F)c1)[C@@H](CC(C)(C)O)c1ccc(Cl)cc1
B. C[C@@H](c1ccc(Cl)cc1)N(C(=O)/C=C/CN(C)C)c1ccc(O[C@@H]2CC[C@@H](NC(=O)N[C@@H]3CCS(=O)(=O)C3)C2)c(F)c1
Query :: Could you point out whether the larger hepatocyte CLint belongs to A or to B ? Selection: enter the item's label.
Result :: A
(A: 5.3 µL/min/1e6 cells, B: 1.5 µL/min/1e6 cells)
